Literature roundup of EED-EZH2 (Homo sapiens (Human), UniProt O75530) data, read-out IC50.

Example entries and their recorded answers appear below.
compound	value reported
Cc1c(-c2cnc(NCc3c(F)ccc4c3C(O)CO4)n3cnnc23)ccc[n+]1[O-] (stereo not shown)	0.0117 µM
O=C(NC1CC(=O)N(Cc2ccccc2C(F)(F)F)C1)c1cccc2cc[nH]c12 (stereo not shown)	> 50 µM
Nc1cc(F)c(-c2cnc(NCc3cccc4c3CCO4)n3cnnc23)cn1	0.0063 µM
O=C(NC1CCN(Cc2ccccc2C(F)(F)F)C1=O)c1cccc(C(F)(F)F)c1O (stereo not shown)	> 50 µM
Cn1cc(-c2cnc(NCc3c(F)ccc4c3CCO4)n3cnnc23)c(C(F)F)n1	0.0075 µM
N#Cc1ncn2c(NCc3c(F)ccc4c3CCO4)ncc(-c3cccnc3C(F)F)c12	0.0235 µM
CC(=O)NC1CC=C(c2cnc(NCc3ccco3)n3cnnc23)CC1 (stereo not shown)	0.793 µM
COCCn1nc(C)c(-c2cnc(NCc3cccc4c3CCO4)n3cnnc23)c1C	0.0156 µM

Please state recorded IC50 (tested on EED-EZH2 (Homo sapiens (Human), UniProt O75530)) of Fc1ccc2c(c1CNc1ncc(-c3ccnn3C3CC3)c3nncn13)CCO2
0.0035 µM

Please state recorded IC50 (tested on EED-EZH2 (Homo sapiens (Human), UniProt O75530)) of CN(C)c1cc(F)c(-c2cnc(NCc3cccc4c3CCO4)n3cnnc23)cn1
0.0177 µM

Please state recorded IC50 (tested on EED-EZH2 (Homo sapiens (Human), UniProt O75530)) of c1cc(CNc2ncc(C3CCOCC3)c3nncn23)c2c(c1)OCC2
0.084 µM

Please state recorded IC50 (tested on EED-EZH2 (Homo sapiens (Human), UniProt O75530)) of CS(=O)(=O)c1ccc(-c2cnc(NCc3c(F)ccc4c3CCO4)n3cnc(C#N)c23)cn1
0.0053 µM

Please state recorded IC50 (tested on EED-EZH2 (Homo sapiens (Human), UniProt O75530)) of CN1CCN(c2ccc(-c3cnc(NCc4c(F)ccc5c4CCO5)n4cncc34)cn2)CC1
0.0177 µM

Please state recorded IC50 (tested on EED-EZH2 (Homo sapiens (Human), UniProt O75530)) of Fc1ccc2c(c1CNc1ncc(C3CCCOCC3)c3nncn13)CCO2 (stereo not shown)
0.0119 µM

Please state recorded IC50 (tested on EED-EZH2 (Homo sapiens (Human), UniProt O75530)) of Cc1nc(C(=O)N(C)C)ccc1-c1cnc(NCc2c(F)ccc3c2CCO3)n2cncc12
0.0095 µM

Please state recorded IC50 (tested on EED-EZH2 (Homo sapiens (Human), UniProt O75530)) of Cc1nn(CCO)c(C)c1-c1cnc(NCc2c(F)ccc3c2CCO3)n2cnc(C#N)c12
0.0034 µM

Please state recorded IC50 (tested on EED-EZH2 (Homo sapiens (Human), UniProt O75530)) of CN1CCC(S(=O)(=O)c2ccc(-c3cnc(NCc4cccc5occc45)n4cnnc34)cc2)CC1
0.0141 µM

Please state recorded IC50 (tested on EED-EZH2 (Homo sapiens (Human), UniProt O75530)) of C1=C(c2cnc(NCc3cccc4occc34)n3cnnc23)CCOC1
0.056 µM

Please state recorded IC50 (tested on EED-EZH2 (Homo sapiens (Human), UniProt O75530)) of O=C(c1ccc(-c2cnc(NCc3cccc4c3CCO4)n3cnnc23)cc1)N1CCNCC1
0.0132 µM

Please state recorded IC50 (tested on EED-EZH2 (Homo sapiens (Human), UniProt O75530)) of CC(C)(C)OC(=O)N1CC=C(c2cc(C#N)c(NCc3ccco3)n3cnnc23)CC1
0.2 µM
